Measured GI50, listed per entry.
Test system: M14
measurement.notes: NCI tumour cell line growth inhibition, 48 h
Calls of active or inactive are those of the source. No stated cut-off is given here; in the data, active = GI50 up to about 1.1 µM and inactive = higher.
readout.name: GI50

compound: Cn1c(=O)c2nc[nH]c2n(C)c1=O
val: > 100 µM (inactive)
--
compound: COc1nc(C#CC2(O)CCCCC2)nc(OC)n1
val: 8.65 µM (inactive)
--
compound: N#CC(Cc1ccccc1)N(CCC1=CCCCC1)C(c1ccccc1)c1ccccc1 (centres undefined)
val: 18.8 µM (inactive)
--
compound: COc1ccc(NC(=O)CC/C(CC(=O)c2ccco2)=N/Nc2ccc([N+](=O)[O-])cc2[N+](=O)[O-])cc1
val: > 100 µM (inactive)
